STUDY_TARGET: (Na^+ +K^+)ATPase (Canis lupus familiaris, UniProt P50997)
Construct: (Na^+ +K^+)ATPase was purified from the outer medulla of dog kidney; from tissue; host or cells: dog kidney outer medulla, purified membrane enzyme
PROTOCOL_NOTES: Inhibition of (Na^+ +K^+)ATPase activity (coupled optical assay)
Assay type: biochemical, dog
SETTINGS: read-out: calculated apparent Kd value; inhibition of (Na^+ +K^+)ATPase activity, 37° C.
pKd: −log10 of the molar value.
ATTRIBUTE_MEASURED: pKd

| MOLECULE | STUDY_TARGET | MEASUREMENT |
| --- | --- | --- |
| CC1OC(OC2CC(O)C3(CO)C4C(O)CC5(C)C(C6=CC(=O)OC6)CCC5(O)C4CCC3(O)C2)C(O)C(O)C1O (stereo not shown) | (Na^+ +K^+)ATPase (Canis lupus familiaris, UniProt P50997) | 7.86 |
